# protocol notes: Ratio of K+2/K of the compound
Reported k+2/k by item:
value kind: k+2/k (M⁻¹ s⁻¹)

> print(dat)
                                smiles.data  reported
1     C[C@H](NC(=O)COc1ccccc1)C(=O)C(F)(F)F       9.1
2    C[C@@H](NC(=O)COc1ccccc1)C(=O)C(F)(F)F       9.1
3  C[C@@H](NC(=O)COc1ccccc1)[C@@H](O)C(F)(F)F      5.25
4  O=C(COc1ccccc1)N[C@@H](Cc1ccccc1)[C@@H](O)C(F)(F)F       2.3
5  O=C(COc1ccccc1)N[C@@H](Cc1ccccc1)C(=O)C(F)(F)F       7.2
6  O=C(COc1ccccc1)N[C@H](Cc1ccccc1)[C@@H](O)C(F)(F)F       1.9

----------
# protocol notes: Compound was evaluated for inhibition of metallo beta lactamase from Pseudomonas aeruginosa 101
The compounds listed here are annotated with their Ki.
value kind: Ki

> print(dat)
                                smiles.data  reported
1  C[C@H](NC(=O)COc1ccccc1)[C@@H](O)C(F)(F)F    400 µM
2  O=C(COc1ccccc1)N[C@@H](Cc1ccccc1)[C@@H](O)C(F)(F)F    900 µM
3  C[C@@H](NC(=O)COc1ccccc1)[C@@H](O)C(F)(F)F    400 µM
4  O=C(COc1ccccc1)N[C@H](Cc1ccccc1)[C@@H](O)C(F)(F)F     60 µM
5     C[C@H](NC(=O)COc1ccccc1)C(=O)C(F)(F)F    300 µM
6    C[C@@H](NC(=O)COc1ccccc1)C(=O)C(F)(F)F    500 µM
7  O=C(COc1ccccc1)N[C@@H](Cc1ccccc1)C(=O)C(F)(F)F    530 µM

----------
Quick list: Ki per entry.
# protocol notes: Compound was evaluated for inhibition of metallo beta lactamase from xanthomonas maltophilia ULA-511
# Design: species or system Stenotrophomonas maltophilia
value kind: Ki (µM)

> print(dat)
                                smiles.data  value.kind  op  reported
1    C[C@@H](NC(=O)COc1ccccc1)C(=O)C(F)(F)F          Ki   =         3
2  O=C(COc1ccccc1)N[C@H](Cc1ccccc1)[C@@H](O)C(F)(F)F          Ki   >      5000
3  O=C(COc1ccccc1)N[C@@H](Cc1ccccc1)[C@@H](O)C(F)(F)F          Ki   >      5000
4  C[C@H](NC(=O)COc1ccccc1)[C@@H](O)C(F)(F)F          Ki   >      5000
5  C[C@@H](NC(=O)COc1ccccc1)[C@@H](O)C(F)(F)F          Ki   =        35
6  O=C(COc1ccccc1)N[C@@H](Cc1ccccc1)C(=O)C(F)(F)F          Ki   =        15
7     C[C@H](NC(=O)COc1ccccc1)C(=O)C(F)(F)F          Ki   =       1.5

----------
# protocol notes: Compound was evaluated for inhibition of metallo beta lactamase from bacillus cereus 569H
Ki under 1000 µM gets satisfied, anything at or over 1000 µM gets not satisfied.

> print(dat)
                                smiles.data  category.label
1  O=C(COc1ccccc1)N[C@@H](Cc1ccccc1)C(=O)C(F)(F)F       satisfied
2     C[C@H](NC(=O)COc1ccccc1)C(=O)C(F)(F)F       satisfied
3  C[C@H](NC(=O)COc1ccccc1)[C@@H](O)C(F)(F)F   not satisfied
4  O=C(COc1ccccc1)N[C@H](Cc1ccccc1)[C@@H](O)C(F)(F)F       satisfied
5    C[C@@H](NC(=O)COc1ccccc1)C(=O)C(F)(F)F       satisfied
6  C[C@@H](NC(=O)COc1ccccc1)[C@@H](O)C(F)(F)F       satisfied
